Origin of measurements: PubChem BioAssay (NCI)

Procedure Details: NCI Yeast Anticancer Drug Screen. Data for the sgs1 mgt1 strain (AID 161);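 further: 0% = growth of cultures given vehicle only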
Test Parameters: S. cerevisiae sgs1 mgt1 strain, at 50.0 µM, active compounds read high
This is part of a sample that, as a whole, favours compounds with a hit. Of some 79,000 tested, about 15% had one in any assay.
Reported Property: growth inhibition (%)
Hi! Could you send only the number? It should be in %, unit omitted.

O=C(COc1ccc(Cl)cc1)NCCOC(=O)COc1ccc(Cl)cc1; 12.2
CC1=C(/C=C/C(C)=C/C=C/C(C)=C/C=C/C=C(C)/C=C/C=C(\C)C=O)C(C)(C)CCC1; -9.4
C/C(=N\NC(=S)N1CCCCCC1)c1nccs1; -1.5
O=C1C2(CCCC13OC3c1ccccc1)OC2c1ccccc1 (configuration not stated); -5.15

Ask | Which growth inhibition reading was recorded for the compound CC1(C)OC2C3COc4nc5c(N)ncnc5n4C(O3)C2O1 (configuration not stated) ?
Reply | -8.85

* * *

Procedure Details: NCI Yeast Anticancer Drug Screen. Data for the cln2 rad14 strain (AID 165);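 further: 0% = growth equal to vehicle treated cultures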
Test Parameters: S. cerevisiae cln2 rad14 strain, at 50.0 µM, active compounds read high
This is part of a sample that, as a whole, favours compounds with a hit. Of some 79,000 tested, about 15% had one in any assay.
Reported values of growth inhibition for individual entries
# output: bare number, implied unit %

// below: answered compounds
O=CCCC1CCCCC1; -17.4
CCC(C#N)N(Cc1cccc(CN(C(C)=O)C(C#N)CC)c1)C(C)=O (stereo unspecified); -29.9
CCOP(=O)(c1ccccc1)C(C)C (stereo unspecified); -40
CN1C(C)(C)CC(CN2c3ccccc3Sc3ccccc32)C1(C)C (stereo unspecified); -19.3
CCCCCCC(=O)N1SC(NC(=O)OC)=Nc2ccccc21; 36.5
CN(C=O)C(C(=O)Nc1cccc2c(OC(=O)C(N(C)C=O)(N(C)C=O)N(C)C=O)c(N=Nc3ccc(S(=O)(=O)Nc4nccs4)cc3)cc(N=Nc3ccc(S(=O)(=O)Nc4nccs4)cc3)c12)(N(C)C=O)N(C)C=O (tested in a mixture with another compound); -6.5
CCOc1cc2c(cc1C(C)c1ccc(OCc3ccccc3)cc1)OCO2 (stereo unspecified); 1.25
CC(=O)C(CCN(C)C)c1ccc2c(c1)CCc1ccccc1-2 (stereo unspecified); -8.45

Ask | Name the recorded growth inhibition for CC(C)(C)c1ccc(C(=O)O)c(O)c1.CC(C)(C)c1ccc(C(=O)O)c(O)c1.[Cu] .
Reply | 47.6

Ask | Name the recorded growth inhibition for CSc1nccc(=O)n1C .
Reply | -52.6

* * *

Procedure Details: NCI Yeast Anticancer Drug Screen. Data for the cln2 rad14 strain (AID 165);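 further: 0% = growth equal to vehicle treated cultures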
Test Parameters: S. cerevisiae cln2 rad14 strain, at 50.0 µM, active compounds read high
The panel holds about 79,000 compounds, 15% with a hit somewhere; the sample as a whole holds those more often.
Reported Property: growth inhibition (%)
Provide only the numeric value, understood in %.

Please review the entries below; each comes with its answer.
O=C1OC(=O)C2C1C1CCC2C1(c1ccccc1)c1ccccc1 (configuration not stated); -4.7
CCOC(=O)/C=C(/C)C#N; 7.4
c1ccc2oc(N3CCN(c4nc5ccccc5o4)CC3)nc2c1; 5.85
COc1ccc(CC[n+]2cccc(/C(=N/O)c3ccccc3)c2)cc1OC; 2.7

Ask | Name the recorded growth inhibition for NC(=S)NCCN1CCOCC1 .
Reply | -15.7

Ask | Entry CC(O)(CNS(=O)(=O)c1ccccc1)c1ccccc1 (configuration not stated) has what growth inhibition?
Reply | -36.9

Ask | For the molecule Clc1cccc(C2N3CCCCC3[C@@H]3c4[nH]c5ccccc5c4CCN23)c1 (some centres not stated) , what growth inhibition is on record?
Reply | 3.1

Ask | Fill in: growth inhibition of CCOC(=O)c1nc2ccc(C(F)(F)F)cc2nc1Nc1ccc(Cl)c(Cl)c1 is ___
Reply | -19

Ask | What does the data say about its growth inhibition? Entry: N#C/C(=C1\OC(=O)C(c2ccc(Br)cc2)=C1O)c1ccc(Br)cc1
Reply | 5.3

Ask | I'd like to know its growth inhibition. The molecule in question is CC(=O)OCCOCCCl
Reply | -13.3

Ask | Which growth inhibition value is on record for Oc1cc(-n2cccn2)c(O)cc1-n1cccn1 ?
Reply | 5.25

Ask | Any idea what its growth inhibition is? The molecule is CCCCCCCCOc1ccc(C=Nc2ccc(C)cc2)cc1
Reply | -9.8

Ask | Find the recorded growth inhibition belonging to CCOC(=O)/C(=C\n1c(=O)[nH]c(=O)[nH]c1=S)C(=O)c1ccccc1 and report it.
Reply | 7.35

Ask | Sample COC(=O)CCC(=O)Nc1ccccc1C(F)(F)F — what was its growth inhibition?
Reply | 3.2

Ask | Looking for the measured growth inhibition of O=C(CC1(O)C(=O)Nc2ccccc21)c1ccc(O)cc1O (configuration not stated) , can you help?
Reply | 26.4

* * *

Parameter: growth inhibition. Scope: all listed entries.
Procedure Details: NCI Yeast Anticancer Drug Screen. Data for the rad50 strain (AID 155);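 further: 0% = growth of vehicle-only cultures of the same strain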
Test Parameters: S. cerevisiae rad50 strain growth inhibition; at 50.0 µM; active compounds read high
This is part of a sample that, as a whole, favours compounds with a hit. Of some 79,000 tested, about 15% had one in any assay.
Could you give me the number in %? Just the number is fine.

Guide cases for growth inhibition, answers given:
N#C/C(=N\NC(=O)c1cccc(C(=O)N/N=C(\C#N)c2ccccc2Cl)n1)c1ccccc1Cl; -0.95
CCC(C)(S)CN (stereo not given); -1.55
Cc1ccc(C)o1; -5.3

Ask | So what's the measured growth inhibition for this one? Cn1cc(/C=C/C(=O)c2ccccc2[N+](=O)[O-])c2ccccc21
Reply | 7.8

Ask | Given CC(O)C(F)(F)F (stereo not given) , state its recorded growth inhibition.
Reply | 18.2

Ask | # growth inhibition lookup, item CC1(O)CCC(C(C)(C)C)CC1 (stereo not given)
Reply | 22.6

Ask | May I ask what growth inhibition has been recorded for Cc1ccc(S(=O)(=O)ON/N=c2\ccn(C)c3ccccc23)cc1 ?
Reply | 38.1

* * *

Procedure Details: NCI Yeast Anticancer Drug Screen. Data for the cln2 rad14 strain (AID 165);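 further: 0% = growth equal to vehicle treated cultures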
Test Parameters: S. cerevisiae cln2 rad14 strain, at 50.0 µM, active compounds read high
About 79,000 compounds went through this panel and 15% of them were active in at least one assay; those are over-represented in the sample as a whole.
growth inhibition for assorted compounds
Return type: number; implicit unit %.

CC1=C(CCC(C)CO)OC2CC3C4CCC5CC(O)CCC5(C)C4CCC3(C)C12 (configuration not stated); -1.9
Nc1ccc(COCCOCc2ccc(N)cc2)cc1; -5.6
CC1(COc2ccccc2)NC(=O)c2ccccc2O1 (configuration not stated); -46.2
C1C[O][Ge]2([O]1)[O]CC[O]2; 17.1
CCCCN=C1Nc2nc(=NCCCC)nc3c(Br)cc(Br)c(n23)N1; 23.4
CC(=O)CC(OC(C)=O)C1=CCC2C(CC1C)OC(=O)C2C (configuration not stated); -0.65

Ask | Dear colleague, I am looking for the recorded growth inhibition of the following compound: CCCn1c(CC)nc([N+](=O)[O-])c1Sc1ncn[nH]1
Reply | 9.1

Ask | growth inhibition for CCCCCCCCCCCC(=O)N(CCOC(=O)c1ccccc1)CCc1ccccc1 ?
Reply | 19.2

Ask | growth inhibition for COc1cc2c(c([N+](=O)[O-])c1)NC(=O)C(C)S2 (configuration not stated) ?
Reply | 28.8

Ask | Record request: growth inhibition value, item CCCCCCC(=O)OC(C)CC(C)C (configuration not stated)
Reply | -11.2

Ask | So what's the measured growth inhibition for this one? CCOC(=O)C(Cc1ccccc1)NC(=O)c1[nH]cnc1/N=N/N(C)C (configuration not stated)
Reply | -2.05

Ask | # input compound: CCCN(CCN(CC)CC)C(=O)N(CC)CC ; wanted: its growth inhibition
Reply | -19.1

* * *

Procedure Details: NCI Yeast Anticancer Drug Screen. Data for the mec2-1 strain (AID 157)
Test Parameters: S. cerevisiae mec2-1 strain, at 50.0 µM, active compounds read high
Compounds without any hit were thinned out: in the full panel of roughly 79,000, 15% have a hit.
Catalogue of molecules with associated growth inhibition
Enter your answer as a number in %; do not include the unit.

The examples below pair each entry with its known result.
COC(=O)NN(C(=O)OC)C12CCCC1N(C(=O)OC)N(C(=O)OC)c1c2ccc2ccccc12 (stereo not given); -1.55
[Cu+2].[O-]C1c2c(ccc3ccccc23)-c2ccccc2C1N=Nc1ccccc1.[O-]c1c(N=Nc2ccccc2)c2ccccc2c2ccc3ccccc3c12 (stereo not given); -20.7
CCC(COCC(CC)C(=O)O)C(=O)O (stereo not given); 1.1
Cc1cnc2ccccc2c1; -2.15
Cc1ccc(C)c2c1C(=O)c1ccccc1C2(O)C#Cc1ccccc1 (stereo not given); 1.45

Ask | Entry Cc1cc(-c2ccccc2)nc(Nc2nc3ccccc3o2)n1 has what growth inhibition?
Reply | 1.1

Ask | Quick check: growth inhibition of CC1([C@H]2CC[C@H]3[C@@H]4CC[C@H]5OC(=O)CC[C@]5(C)[C@H]4CC[C@]23C)SCCS1 ?
Reply | -19

Ask | Can you look up the measured growth inhibition of O=C(O)C1CC=CCC1C(=O)Nc1cccc(O)c1 (stereo not given) for me?
Reply | -30.8

Ask | Fill in: growth inhibition of NC(=O)c1nnc2ccc(F)cc2c1N is ___
Reply | -37

Ask | Bench note: what growth inhibition did CCCCCNC(=O)Nc1cccc(Cl)c1C show?
Reply | 6.75

Ask | // lookup growth inhibition for CC(Cc1ccco1)C(=O)O (stereo not given)
Reply | 15.4

Ask | What does the record list as growth inhibition for COC(=O)N/N=C/c1cccc(C)n1 ?
Reply | 2.05

Ask | Quick one: growth inhibition of CC(C)(C)OC(=O)c1cccc(C(=O)OC(C)(C)C)c1 ?
Reply | 41.6

Ask | Could you tell me which growth inhibition is on file for COc1ccc(/C=C/C(=O)c2c(-c3ccccc3)nn(C)c(=O)c2N2CCCCC2)cc1 ?
Reply | -8.5

Ask | Name the recorded growth inhibition for CCC(=O)Oc1ccc(C(OC(=O)CC)OC(=O)CC)cc1OC .
Reply | -9.1

Ask | Which value of growth inhibition has been reported for N#C/C1=C(\N)CCSSSC1 in the records?
Reply | 25.9
